Reference source: ChEMBL document CHEMBL1156828

Target: Mitogen-activated protein kinase 14 (Homo sapiens)
Sequence (Q16539 whole entry): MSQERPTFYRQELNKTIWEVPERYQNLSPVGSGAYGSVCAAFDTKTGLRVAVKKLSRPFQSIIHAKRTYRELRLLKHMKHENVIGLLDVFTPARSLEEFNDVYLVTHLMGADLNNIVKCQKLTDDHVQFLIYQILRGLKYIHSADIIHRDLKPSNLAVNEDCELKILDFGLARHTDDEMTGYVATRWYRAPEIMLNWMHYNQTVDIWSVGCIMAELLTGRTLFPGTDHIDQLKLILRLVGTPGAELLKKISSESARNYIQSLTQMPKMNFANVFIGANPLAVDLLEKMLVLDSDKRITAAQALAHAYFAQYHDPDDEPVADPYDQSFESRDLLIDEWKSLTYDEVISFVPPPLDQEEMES
Experiment: Inhibition of p38alpha-mediated ATF2 phosphorylation in presence of ATP
pIC50: −log10 of the molar value.
Endpoint label: pIC50

[[record]]
compound = "Fc1ccc(-c2nc3ccccc3nc2-c2ccncc2)cc1"
test_target = "Mitogen-activated protein kinase 14 (Homo sapiens)"
result_value = 5.50

[[record]]
compound = "CC(Nc1cc(-c2nc3ccccc3nc2-c2ccc(F)cc2)ccn1)c1ccccc1 (stereo not drawn)"
test_target = "Mitogen-activated protein kinase 14 (Homo sapiens)"
result_value = 6.14

[[record]]
compound = "O[C@H]1CC[C@H](Nc2cc(-c3nc4cc(Cl)c(Cl)cc4nc3-c3ccc(F)cc3)ccn2)CC1"
test_target = "Mitogen-activated protein kinase 14 (Homo sapiens)"
result_value = 6.22

